# Test system: TZM-bl cells
# experiment-description: Cytotoxicity in TZM-bl cells (XTT)
# Assay type: cell-based
Some compounds, each annotated with its measured CC50.

Known CC50 results, listed for orientation:
compound	CC50
Cc1nccn1CCCNC(=O)CCC(=O)Nc1ccc(Cl)cc1	102 µM
Cc1nc(C(NC(=O)CCC(=O)Nc2ccc(Cl)cc2)C2CCCN2)sc1CO (stereo not drawn)	> 85 µM
Cc1nc(C(NC(=O)C(=O)Nc2ccc(F)c(Cl)c2)C2CCCCN2)sc1CO.Cl.Cl (stereo not drawn)	> 77.8 µM

Specify reported CC50 for the compound shown: CC(=O)c1ccc(NC(=O)C(=O)NC(c2nc(C)c(CO)s2)C2CCCCN2)cc1 (stereo not drawn)
> 86 µM

Supply CC50 value. Item: Cc1nc(C(NC(=O)C(=O)Nc2ccc(Cl)cc2)C2CCCNC2)sc1CO (stereo not drawn)
~60.2 µM

Quickly give me recorded CC50 for Cc1nc(C(NC(=O)C(=O)Nc2ccc(Cl)c(F)c2)C2CCCCN2)sc1CCO.Cl (stereo not drawn)
~61 µM

Retrieve CC50 measured for Cc1nc(C(NC(=O)C(=O)Nc2ccc(F)cc2)C2CCCCN2)sc1CCO (stereo not drawn) and print it.
> 88 µM

Give CC50 for the following compound: Cc1nc(C(NC(=O)C(=O)Nc2ccc(Cl)cc2)C2CCCCN2)sc1CO.Cl (stereo not drawn)
> 22 µM

# return recorded CC50 for input Cc1nc(C(NC(=O)C(=O)Nc2ccc(Cl)cc2)C2CCCNC2)sc1CCO (stereo not drawn)
~59.4 µM

---

# Test system: TZM-bl cells
# experiment-description: Cytotoxicity in TZM-bl cells (XTT)
# Type: cell-based
CC50 values by entry

molecule	CC50
CN1CCN(C(=O)CNC(=O)CCC(=O)Nc2ccc(Cl)cc2)CC1	~36 µM
CC(C)c1nccn1CCCNC(=O)CCC(=O)Nc1ccc(Cl)cc1	> 95 µM
Cc1nc(C(NC(=O)C(=O)Nc2ccc(F)c(Cl)c2)C2CCCCN2)sc1CCO.Cl.Cl (centres unmarked)	> 75.8 µM
Cc1nc(C(NC(=O)C(=O)Nc2ccc(Cl)cc2)C2CCNCC2)sc1CO (centres unmarked)	~81 µM

Okay, next one:
Please give measured CC50 of the following entry: Cc1nc(C(NC(=O)C(=O)Nc2ccc(Cl)cc2)C2CCCN2)sc1CO (centres unmarked)
12.4 µM

---

IC50 values, listed per item
# Test system: primary HIV-1 isolate 92US657 (subtype B, R5)
# experiment-description: Neutralization assay in PBMC (p24 ELISA)
# details: read-out: IC50 (μM) ± S.D., inhibitory activity on infection; 92US657, subtype B, PBMC, R5, primary isolate
// note: answer is a bare numeric in µM

The following molecules have reported results that may help.
molecule	system-under-test	IC50 [µM]
Cc1ccc(NC(=O)C(=O)NC(c2nc(C)c(CO)s2)C2CCCCN2)cc1F.Cl (centres unmarked)	primary HIV-1 isolate 92US657 (subtype B, R5)	12.3
Cc1nc(C(NC(=O)C(=O)Nc2ccc(Cl)cc2)C2CCCCN2)sc1CO.Cl (centres unmarked)	primary HIV-1 isolate 92US657 (subtype B, R5)	8.6
Cc1nc(C(NC(=O)C(=O)Nc2ccc(Cl)c(F)c2)C2CCCCN2)sc1CCO.Cl (centres unmarked)	primary HIV-1 isolate 92US657 (subtype B, R5)	7.1
Cc1ccc(NC(=O)C(=O)NC(c2nc(C)c(CCO)s2)C2CCCCN2)cc1F.Cl (centres unmarked)	primary HIV-1 isolate 92US657 (subtype B, R5)	6.8

Next up:
Annotate the molecule CC1(C)CC(NC(=O)C(=O)Nc2ccc(Cl)cc2)CC(C)(C)N1 [NBD-556, reference compound] with its measured IC50.
48
